The measurements presented in this section are drawn from PubChem BioAssay.

test details: endothelial E-selectin expression blockers – imaging, HUVEC, immunofluorescence, MLSMR starter and 10KST1 sets, primary screen (AID 487);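 further: 100% = median nuclei count of all wells on the same plate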
condition summary: HUVEC TNFalpha-induced E-selectin immunofluorescence imaging, at 2 µM; measured here: cell number, toxicity
quantity: nuclei count (%)
Numbers only, in %.

Example results:
COc1ccc(OC)c(NC(=O)CCN2CCC(C)CC2)c1 :: 220
Cc1csc(NC(=O)C(Cc2ccccc2)n2cccc2)n1 (stereo unspecified) :: 117
O=C(CSc1nnc2ncccn12)N1CCCCCC1 :: 82.7
CSc1nc(C)cc(OCC(=O)N2CCOCC2)n1 :: 95

// each compound listed below needs its nuclei count
1. CCC(C(=O)N1CCc2cc(OC)c(OC)cc2C1)c1ccccc1 (stereo unspecified)
2. CCC1SC2=NC(C)=C(C(=O)OC)C(c3ccc(C)cc3)N2C1=O (stereo unspecified)
3. COc1ccc(N2CCN(C(c3ccccc3)c3sc4nc(C)nn4c3O)CC2)cc1 (stereo unspecified)
4. CC(C)Cc1nnc(NS(=O)(=O)c2ccc(Cl)cc2)s1
5. OCCn1c(-c2ccc3c(c2)OCO3)csc1=Nc1ccccc1

### Response
1: 103; 2: 103; 3: 96.4; 4: 112; 5: 112

Provide reported nuclei count for each item, in the same order as listed.
1. Cn1c(CNc2nc(-c3ccccc3)cs2)nnc1SCC(=O)N1CCc2ccccc21
2. Nn1c(SCC(=O)Nc2ccc(F)cc2)nnc1-c1cccnc1

### Response
1. 140
2. 108
